- Assay Comment: In vivo pharmacokinetic study in mice
- Condition Parameters: mouse, plasma, Po, 1 mg/kg
Assay Readout: Cmax (ng/mL)

INSERT INTO assay_data (compound, measured_number) VALUES
  ('COc1cccc(CNC(=O)N2CCc3cc(-c4c[nH]nc4F)c(F)cc32)c1 [Compound T357]', 352);

1 = O=C(NCc1cc(F)cc(F)c1)N1CCc2cc(-c3cn[nH]c3F)c(F)cc21 [Compound T387]
2 = COc1cccc(CNC(=O)N2CCc3cc(-c4c[nH]nc4N)c(F)cc32)c1 [Compound T345]
Problem: Pick one: 1 or 2 . Which has the bigger Cmax number? // respond with label for picked entry
Result: 2
(2: 322 ng/mL, 1: 188 ng/mL)

====

- Assay Comment: In vivo pharmacokinetic study in mice
- Condition Parameters: mouse, plasma, 1 mg/kg Po vs Iv
Assay Readout: bioavailability (%)

A = COc1cccc(CNC(=O)N2CCc3cc(-c4c[nH]nc4F)c(F)cc32)c1
B = COc1cccc(CNC(=O)N2CCc3cc(-c4c[nH]nc4N)c(F)cc32)c1
Problem: From the items above, decide which of A and B has the lower bioavailability reading. Answer with the label corresponding to your selection.
Result: B
(B: 49.1%, A: 71.1%)

====

- Test system: HepG2 cells
Assay Readout: CC50

Problem: # return CC50 for COc1cc(F)cc(C(=O)NC(=O)c2cn(C)c3cc(-c4cn[nH]c4)ccc23)c1 [Compound T203] , test system: HepG2 cells
Result: > 50 µM

====

pIC50: −log10 of the molar value.
Here's a batch of compounds along with measured pIC50 for ROCK2 kinase (Homo sapiens).

INSERT INTO measurements (compound, result) VALUES
  ('COc1cc(F)cc(CNC(=O)c2cnc3cc(-c4cn[nH]c4)ccn23)c1', '≥ 7.30');

Problem: Enter measured pIC50, system ROCK2 kinase (Homo sapiens), for the compound shown: COc1cc(F)cc(CNC(=O)c2ncc3cc(-c4cn[nH]c4)ccn23)c1
Result: ≥ 7.30

Problem: Check ROCK2 kinase (Homo sapiens) data and give pIC50 for COc1cc(F)cc(CNC(=O)N2CCc3cc(-c4cn[nH]c4)c(Cl)cc32)c1 .
Result: ≥ 7.30

Problem: # return pIC50 of COc1cc(F)cc(CN(CC2COC2)C(=O)N2CCc3cc(-c4cn[nH]c4)ccc32)c1 (system: ROCK2 kinase (Homo sapiens))
Result: 5.30 to 6.30

Problem: Specify the recorded pIC50 for COc1cccc(CNC(=O)N2CCc3cc(-c4c[nH]nc4F)c(F)cc32)c1 , system: ROCK2 kinase (Homo sapiens).
Result: ≥ 7.30

Problem: Print ROCK2 kinase (Homo sapiens) pIC50 for Cn1cc(CNC(=O)N2CCc3cc(-c4cn[nH]c4)ccc32)cn1 .
Result: 6.30 to 7.30

====

- Assay Comment: In vivo pharmacokinetic study in mice
- Condition Parameters: mouse, plasma, Po, 3.4 mg/kg
Assay Readout: Cmax (ng/mL)
Expressed in ng/mL, but write only the number.

Problem: Kindly indicate its recorded Cmax. Item: COc1cc(F)cc(CNC(=O)c2ncn3cc(-c4cn[nH]c4)ccc23)c1
Result: 2130

====

- Assay Comment: In vivo pharmacokinetic study in mice
- Condition Parameters: mouse, plasma, Po, 3 mg/kg
Assay Readout: Cmax (ng/mL)

I = COc1cc(F)cc(CNC(=O)N2CCc3cc(-c4cn[nH]c4)ccc3C2)c1
II = COc1cc(F)cc(CNC(=O)N2CCc3cc(-c4cn[nH]c4)ccc32)c1
Problem: Choose between I and II : whose measured Cmax value is numerically larger? The response must carry the label of the picked entry.
Result: II

====

- Tested On: ROCK1 kinase (Homo sapiens, UniProt Q13464)
- Sequence (Q13464 whole entry): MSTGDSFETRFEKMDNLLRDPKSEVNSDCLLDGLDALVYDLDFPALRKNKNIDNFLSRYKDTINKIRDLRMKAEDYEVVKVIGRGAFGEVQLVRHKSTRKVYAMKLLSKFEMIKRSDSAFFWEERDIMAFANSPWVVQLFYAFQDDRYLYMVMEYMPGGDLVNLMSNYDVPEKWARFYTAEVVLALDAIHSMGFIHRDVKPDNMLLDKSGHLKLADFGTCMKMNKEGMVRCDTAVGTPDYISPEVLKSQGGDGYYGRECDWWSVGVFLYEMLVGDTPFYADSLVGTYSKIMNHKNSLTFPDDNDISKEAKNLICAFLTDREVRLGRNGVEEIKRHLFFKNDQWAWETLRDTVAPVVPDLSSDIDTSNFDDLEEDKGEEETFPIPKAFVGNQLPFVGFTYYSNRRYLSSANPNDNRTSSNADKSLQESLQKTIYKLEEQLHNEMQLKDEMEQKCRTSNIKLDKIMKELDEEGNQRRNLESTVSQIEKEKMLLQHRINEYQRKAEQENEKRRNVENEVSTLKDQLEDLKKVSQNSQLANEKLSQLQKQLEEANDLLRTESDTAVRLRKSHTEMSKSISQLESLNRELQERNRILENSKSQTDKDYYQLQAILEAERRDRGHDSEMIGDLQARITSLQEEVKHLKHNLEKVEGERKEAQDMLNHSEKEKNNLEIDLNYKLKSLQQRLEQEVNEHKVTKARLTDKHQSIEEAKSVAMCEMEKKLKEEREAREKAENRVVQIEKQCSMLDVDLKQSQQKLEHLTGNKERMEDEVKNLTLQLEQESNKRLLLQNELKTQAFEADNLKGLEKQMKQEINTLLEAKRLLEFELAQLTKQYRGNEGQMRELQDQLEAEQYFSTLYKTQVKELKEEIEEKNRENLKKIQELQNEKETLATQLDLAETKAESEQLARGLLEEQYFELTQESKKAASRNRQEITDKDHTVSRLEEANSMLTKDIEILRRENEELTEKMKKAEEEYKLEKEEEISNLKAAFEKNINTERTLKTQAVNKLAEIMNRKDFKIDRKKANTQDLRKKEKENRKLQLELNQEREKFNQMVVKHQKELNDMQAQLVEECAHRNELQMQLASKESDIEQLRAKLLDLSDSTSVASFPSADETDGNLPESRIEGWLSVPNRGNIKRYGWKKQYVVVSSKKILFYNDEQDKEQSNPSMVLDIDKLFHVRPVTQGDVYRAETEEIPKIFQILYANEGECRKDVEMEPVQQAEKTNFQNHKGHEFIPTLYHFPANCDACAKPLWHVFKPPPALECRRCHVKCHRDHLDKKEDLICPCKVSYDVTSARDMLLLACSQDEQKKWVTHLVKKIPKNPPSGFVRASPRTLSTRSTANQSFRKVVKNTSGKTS
pIC50: −log10 of the molar value.
Assay Readout: pIC50

INSERT INTO measurements (compound, result) VALUES
  ('COc1cc(F)cc(CNC(=O)N2CCCc3nc(-c4cn[nH]c4)sc32)c1 [Compound T229]', '≥ 7.30');

Problem: Provide pIC50, system ROCK1 kinase (Homo sapiens, UniProt Q13464), entry COc1cc(F)cc(CNC(=O)c2ncn3cc(-c4cn[nH]c4F)ccc23)c1 [Compound T355]
Result: ≥ 7.30

Problem: Enter measured pIC50, system ROCK1 kinase (Homo sapiens, UniProt Q13464), for the compound shown: O=C(NCc1cc(F)cc(OC(F)F)c1)N1CCc2cc(-c3cn[nH]c3)c(F)cc21 [Compound T375]
Result: 6.30 to 7.30

====

pIC50: −log10 of the molar value.
Here's what we have: pIC50 numbers for ROCK1 kinase (Homo sapiens, UniProt Q13464).

Problem: Report the value of pIC50 obtained on ROCK1 kinase (Homo sapiens, UniProt Q13464) for Cn1cc(CNC(=O)N2CCc3cc(-c4cn[nH]c4)ccc32)cn1 .
Result: 6.30 to 7.30

====

- Tested On: ROCK2 kinase (Homo sapiens, UniProt O75116)
- Sequence (O75116 whole entry): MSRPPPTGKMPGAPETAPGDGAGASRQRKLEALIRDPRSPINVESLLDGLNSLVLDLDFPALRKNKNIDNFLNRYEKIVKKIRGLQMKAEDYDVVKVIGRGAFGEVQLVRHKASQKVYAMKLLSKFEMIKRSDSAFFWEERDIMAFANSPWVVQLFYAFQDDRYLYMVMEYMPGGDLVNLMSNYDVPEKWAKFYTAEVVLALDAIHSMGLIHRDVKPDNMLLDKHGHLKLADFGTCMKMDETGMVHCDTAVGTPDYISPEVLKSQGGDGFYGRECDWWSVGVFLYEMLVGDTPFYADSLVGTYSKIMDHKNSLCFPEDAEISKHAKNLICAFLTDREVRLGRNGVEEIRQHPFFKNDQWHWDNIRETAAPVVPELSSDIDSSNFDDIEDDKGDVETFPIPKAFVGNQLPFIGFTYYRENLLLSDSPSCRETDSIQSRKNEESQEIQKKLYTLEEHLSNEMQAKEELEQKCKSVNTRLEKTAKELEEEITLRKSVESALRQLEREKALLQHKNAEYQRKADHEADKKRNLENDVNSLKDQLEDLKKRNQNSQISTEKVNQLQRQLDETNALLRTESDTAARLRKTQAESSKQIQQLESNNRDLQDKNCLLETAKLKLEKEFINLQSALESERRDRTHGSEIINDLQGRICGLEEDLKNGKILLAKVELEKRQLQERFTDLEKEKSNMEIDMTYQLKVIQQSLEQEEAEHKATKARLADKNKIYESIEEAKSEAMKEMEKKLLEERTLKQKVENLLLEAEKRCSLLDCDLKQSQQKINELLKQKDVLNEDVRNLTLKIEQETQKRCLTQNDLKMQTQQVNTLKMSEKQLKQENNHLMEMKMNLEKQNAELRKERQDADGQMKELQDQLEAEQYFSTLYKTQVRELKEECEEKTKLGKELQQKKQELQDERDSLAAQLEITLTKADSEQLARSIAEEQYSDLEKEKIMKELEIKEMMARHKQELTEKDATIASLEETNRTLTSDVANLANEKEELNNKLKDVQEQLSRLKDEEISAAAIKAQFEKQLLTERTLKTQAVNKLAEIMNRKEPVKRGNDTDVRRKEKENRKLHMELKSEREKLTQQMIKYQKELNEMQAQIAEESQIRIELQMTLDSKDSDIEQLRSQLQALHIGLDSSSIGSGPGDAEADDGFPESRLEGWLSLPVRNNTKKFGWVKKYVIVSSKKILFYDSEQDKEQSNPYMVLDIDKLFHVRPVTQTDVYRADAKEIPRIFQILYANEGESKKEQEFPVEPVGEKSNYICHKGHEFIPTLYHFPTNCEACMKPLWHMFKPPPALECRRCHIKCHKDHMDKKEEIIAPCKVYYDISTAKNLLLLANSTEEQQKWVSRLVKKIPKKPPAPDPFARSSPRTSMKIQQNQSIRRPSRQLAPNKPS
Assay Readout: IC50

Example cases with answers are listed next.
INSERT INTO assay_data (compound, tested_on, result) VALUES
  ('COc1cc(F)cc([C@@H](CO)NC(=O)N2CCc3cc(-c4cn[nH]c4)c(F)cc32)c1 [Compound T377]', 'ROCK2 kinase (Homo sapiens, UniProt O75116)', '≤ 50 nM'),
  ('O=C(NCc1cccc(OCC2CC2)c1)N1CCc2cc(-c3c[nH]nc3F)c(F)cc21 [Compound T380]', 'ROCK2 kinase (Homo sapiens, UniProt O75116)', '≤ 50 nM'),
  ('O=C(NCc1cc(F)cc(F)c1)N1CCc2cc(-c3cn[nH]c3F)c(F)cc21 [Compound T387]', 'ROCK2 kinase (Homo sapiens, UniProt O75116)', '≤ 50 nM'),
  ('O=C(NCc1ccc2[nH]cnc2c1)N1CCc2cc(-c3cn[nH]c3)ccc21 [Compound T247]', 'ROCK2 kinase (Homo sapiens, UniProt O75116)', '50 to 500 nM');

Problem: State measured IC50 of the compound O=C(NCc1cc(F)cc(OC(F)F)c1)N1CCc2cc(-c3cn[nH]c3)c(F)cc21 [Compound T375] with ROCK2 kinase (Homo sapiens, UniProt O75116).
Result: ≤ 50 nM

Problem: Provide the reported IC50 (system: ROCK2 kinase (Homo sapiens, UniProt O75116)) for COc1cc(F)cc([C@@H](CO)NC(=O)c2ncn3cc(-c4cn[nH]c4)ccc23)c1 [Compound T344]
Result: ≤ 50 nM

====

Each entry below carries its measured IC50, system: UniProt:Q13464.

INSERT INTO results (compound, result) VALUES
  ('COc1cc(CNC(=O)N2CCc3cc(-c4cn[nH]c4F)c(F)cc32)ccc1F [Compound T384]', '≤ 50 nM'),
  ('COc1cc(F)cc(CNC(=O)N2CCc3cc(-c4cn[nH]c4F)ccc32)c1 [Compound T342]', '≤ 50 nM'),
  ('COc1cc(F)cc(CN(CC2COC2)C(=O)N2CCc3cc(-c4cn[nH]c4)ccc32)c1 [Compound T212]', '500 to 5000 nM'),
  ('COc1cc(F)cc(CNC(=O)N2CCc3cc(-c4cn[nH]c4)ncc32)c1 [Compound T219]', '≤ 50 nM'),
  ('CN1CC(COc2cc(F)cc(C(CO)NC(=O)N3CCc4cc(-c5cn[nH]c5)c(F)cc43)c2)C1 (stereo not shown) [Compound T343]', '500 to 5000 nM'),
  ('COc1cc(F)cc(CNC(=O)N2CCc3cc(-c4cn[nH]c4)ccc32)c1 [Compound T202]', '≤ 50 nM'),
  ('COc1cc(F)cc(CNC(=O)N2CC(C)(C)c3cc(-c4cn[nH]c4)ccc32)c1 [Compound T223]', '≤ 50 nM'),
  ('COc1cccc(CNC(=O)c2ncn3cc(-c4cn[nH]c4F)ccc23)c1 [Compound T391]', '≤ 50 nM');

Problem: Give UniProt:Q13464 IC50 for the following compound: COc1cc(F)cc(CNC(=O)N2CCc3nc(-c4cn[nH]c4)ccc32)c1 [Compound T220]
Result: 50 to 500 nM

Problem: Provide IC50, tested on UniProt:Q13464, for COc1cc(F)cc(CNC(=O)c2ccc3nc(-c4cn[nH]c4)ccn23)c1 [Compound T235] .
Result: ≤ 50 nM

Problem: Enter IC50 (test system UniProt:Q13464) for COc1cc(F)cc(CNC(=O)N2CCCc3cc(-c4cn[nH]c4)ccc32)c1 [Compound T204]
Result: 50 to 500 nM

Problem: Fill in IC50 for CC(C)NC(=O)COc1cc(F)cc([C@@H](CO)NC(=O)N2CCc3cc(-c4cn[nH]c4)c(F)cc32)c1 [Compound T358] tested with UniProt:Q13464.
Result: ≤ 50 nM

Problem: Provide UniProt:Q13464 IC50 reading for COc1cc(F)cc(C(C)NC(=O)N2CCc3cc(-c4cn[nH]c4)c(F)cc32)c1 (stereo not shown) [Compound T341] .
Result: ≤ 50 nM
